Values from patent US20200040103A1

molecular target: recombinant human KLK5 (human) (UniProt Q9Y337); assay: pro-KLK7 LC/MS assay, 5 nM KLK5
Sequence (Q9Y337 67-293): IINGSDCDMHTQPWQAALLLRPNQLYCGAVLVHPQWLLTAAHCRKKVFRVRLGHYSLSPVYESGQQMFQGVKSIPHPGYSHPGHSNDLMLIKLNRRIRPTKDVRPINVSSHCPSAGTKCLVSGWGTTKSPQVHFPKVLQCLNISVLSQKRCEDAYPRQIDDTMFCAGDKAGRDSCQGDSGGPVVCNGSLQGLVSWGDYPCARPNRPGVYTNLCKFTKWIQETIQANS
property.label: IC50 (nM)
Dear colleague, please return just the value in nM, with no unit written.

2-3F4 (antibody, V domains shown) VH: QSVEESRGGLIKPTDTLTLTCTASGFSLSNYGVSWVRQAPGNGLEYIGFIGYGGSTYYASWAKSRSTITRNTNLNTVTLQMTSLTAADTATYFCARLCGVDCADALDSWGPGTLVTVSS VL: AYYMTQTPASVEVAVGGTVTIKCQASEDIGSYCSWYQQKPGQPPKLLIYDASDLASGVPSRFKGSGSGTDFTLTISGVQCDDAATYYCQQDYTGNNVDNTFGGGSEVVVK: 0.38
9F2 (antibody, V domains shown) VH: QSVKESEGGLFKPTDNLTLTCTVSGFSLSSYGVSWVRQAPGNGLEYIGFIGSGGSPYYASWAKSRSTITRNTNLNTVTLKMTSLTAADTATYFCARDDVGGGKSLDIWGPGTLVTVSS VL: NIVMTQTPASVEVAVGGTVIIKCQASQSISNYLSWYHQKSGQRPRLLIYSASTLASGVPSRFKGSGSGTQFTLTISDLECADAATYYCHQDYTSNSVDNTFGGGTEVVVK: 1.26
8F5 (antibody, V domains shown) VH: QSVKESEGGLFKPTDTLTLTCTVSGFSLSSYPISWVRQAPGNGLEWIGYITSEYGVAYYATWAESRSTITRNTNLNTVTLKMTSLTAADTATYFCVRENPTYGYAYDAWGPGTLVTVSS VL: AYDLTQTPASVEAAVGGTVTINCQASESIGNELSWYQQKSGQPPKLLIYQASTLASGVPSRFKGSGSGTDFTLTISDLECADAATYYCAQGFSSSGVENVFGGGTEVVVK: 1.31
3-3F5 (antibody, V domains shown) VH: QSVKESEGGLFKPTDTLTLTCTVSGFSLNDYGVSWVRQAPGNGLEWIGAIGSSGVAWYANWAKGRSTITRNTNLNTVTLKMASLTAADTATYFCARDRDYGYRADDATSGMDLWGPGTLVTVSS VL: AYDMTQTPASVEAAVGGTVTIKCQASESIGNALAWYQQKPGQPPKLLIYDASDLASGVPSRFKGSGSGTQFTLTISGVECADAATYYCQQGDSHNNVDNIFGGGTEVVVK: 1.44

Recorded IC50 of 10H3 (antibody, V domains shown) VH: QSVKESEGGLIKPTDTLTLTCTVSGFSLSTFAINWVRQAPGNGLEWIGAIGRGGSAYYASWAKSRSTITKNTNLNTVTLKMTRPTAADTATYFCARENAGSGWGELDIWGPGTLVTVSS VL: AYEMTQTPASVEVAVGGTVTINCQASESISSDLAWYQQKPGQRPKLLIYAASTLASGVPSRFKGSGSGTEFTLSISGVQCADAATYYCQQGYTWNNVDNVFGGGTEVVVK , please.
0.97

Name the recorded IC50 for 9B6 (antibody, V domains shown) VH: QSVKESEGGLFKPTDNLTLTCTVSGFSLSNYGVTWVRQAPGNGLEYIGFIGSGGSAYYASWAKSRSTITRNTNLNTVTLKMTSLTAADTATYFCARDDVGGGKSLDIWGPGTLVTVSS VL: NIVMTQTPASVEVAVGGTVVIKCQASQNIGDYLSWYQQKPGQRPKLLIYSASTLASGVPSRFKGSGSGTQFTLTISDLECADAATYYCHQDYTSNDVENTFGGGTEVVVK .
1.42
